Answer each item with its documented AC35.
Tested on: HepG2 viability, CellTiter-Glo ATP luminescence, 72 h
ASSAY_METHOD_TEXT: viability loss in human hepatoma cells – cell-based, CellTiter-Glo luminescence, cherry-pick, set 2, cytotoxicity control, dose response (AID 743395)

Solved cases (3 shown):
MOLECULE: CCCC(=O)NC(c1ccc(Cl)cc1)c1ccc2cccnc2c1O (stereo not given)
AC35: 1.77 µM
//
MOLECULE: Cc1nc(C)c(C(=O)NN=Cc2ccc(N(CCCl)CCCl)cc2)s1
AC35: 11.8 µM
//
MOLECULE: CCOC(=O)c1ccc(Nc2sc(C(=O)c3cccc([N+](=O)[O-])c3)c(N)c2C#N)cc1
AC35: 6.7 µM

List the reported AC35 of each molecule below.
1. CN1/C(=C\C=C2/SC(=S)NC2=O)C(C)(C)c2ccccc21
2. COc1cc(OC)c2c(-c3cccc(-c4sccc4C(C)=O)c3)cc(=O)oc2c1
3. COc1ccc(NC(=O)C(=O)NCC2CCCN2S(=O)(=O)c2cccs2)cc1 (stereo not given)
4. O=c1c2ccccc2sc2c(CO)ccc(NCCN3CCCCC3)c12
5. Cc1ccc(Nc2nc(-c3sc(C)nc3C)cs2)cc1
6. Cc1cccc(N2CCN(Cc3cn(C)nc3-c3ccccc3F)CC2)n1

Reply |
1. 17.9 µM
2. 7.12 µM
3. 12.8 µM
4. 4.82 µM
5. 3.7 µM
6. 3.97 µM

Ask | Give the measured AC35 of C[C@@H]1CN([C@H](C)CO)S(=O)(=O)c2ccc(-c3ccccc3)cc2O[C@H]1CN(C)Cc1ccccn1 .
Reply | 16.7 µM
